Property: Kd; scope: individual binders
Biological target: T1, IFN-α4a (human, UniProt P05014 24-189)
T1 construct: Recombinant, HEK293; also called IFN-αM1
Test: ProteOn SPR, cell supernatant;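 further: each binding measurement used just a single antigen concentration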
Answer with a number only, understood to be in nM.

# BINDER, UOM, Kd
rows = [
    ("IFWM3389 (antibody, IgG1, V domains shown, mAb; IgG1/kappa said of the parent and of selected mAbs; also called IFWB3124) VH: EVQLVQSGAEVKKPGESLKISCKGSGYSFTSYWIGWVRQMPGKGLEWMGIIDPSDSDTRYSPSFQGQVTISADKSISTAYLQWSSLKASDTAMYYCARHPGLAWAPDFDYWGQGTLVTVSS VL: DIQMTQSPSSLSASVGDRVTITCRASQSIDDFLNWYQQKPGKAPKLLIYFASSLQSGVPSRFSGSGSGTDFTLTISSLQPEDFATYYCQQSHTLPLTFGQGTKVEIK", "nM", 0.098),
    ("IFWM3385 (antibody, IgG1, V domains shown, mAb; IgG1/kappa said of the parent and of selected mAbs; also called IFWB3120) VH: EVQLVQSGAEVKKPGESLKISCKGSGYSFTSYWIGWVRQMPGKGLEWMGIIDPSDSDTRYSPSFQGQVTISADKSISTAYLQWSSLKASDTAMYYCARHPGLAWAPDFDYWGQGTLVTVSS VL: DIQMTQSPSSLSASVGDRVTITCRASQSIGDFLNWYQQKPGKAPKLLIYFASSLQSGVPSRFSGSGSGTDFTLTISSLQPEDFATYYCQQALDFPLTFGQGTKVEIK", "nM", 0.178),
    ("IFWM3405 (antibody, IgG1, V domains shown, mAb; IgG1/kappa said of the parent and of selected mAbs; also called IFWB3140) VH: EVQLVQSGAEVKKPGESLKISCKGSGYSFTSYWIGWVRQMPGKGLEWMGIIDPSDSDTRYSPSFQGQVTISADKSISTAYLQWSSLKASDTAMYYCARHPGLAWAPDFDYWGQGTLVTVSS VL: DIQMTQSPSSLSASVGDRVTITCRASQSIANNNLNWYQQKPGKAPKLLIHWASSLQSGVPSRFSGSGSGTDFTLTISSLQPEDFATYYCQQGYDTPFTFGQGTKVEIK", "nM", 0.067),
    ("IFWM3416 (antibody, IgG1, V domains shown, mAb; IgG1/kappa said of the parent and of selected mAbs; also called IFWB3151) VH: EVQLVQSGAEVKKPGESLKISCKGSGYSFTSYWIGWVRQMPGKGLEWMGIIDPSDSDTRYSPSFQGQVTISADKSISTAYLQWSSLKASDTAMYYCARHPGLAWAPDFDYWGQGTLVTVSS VL: DIQMTQSPSSLSASVGDRVTITCRASQSIRNTNLNWYQQKPGKAPKLLIHWASSLQSGVPSRFSGSGSGTDFTLTISSLQPEDFATYYCQQGYDTPFTFGQGTKVEIK", "nM", 0.103),
]

We next turn to a different binder, shown below.
# Kd of IFWM3411 (antibody, IgG1, V domains shown, mAb; IgG1/kappa said of the parent and of selected mAbs; also called IFWB3146) VH: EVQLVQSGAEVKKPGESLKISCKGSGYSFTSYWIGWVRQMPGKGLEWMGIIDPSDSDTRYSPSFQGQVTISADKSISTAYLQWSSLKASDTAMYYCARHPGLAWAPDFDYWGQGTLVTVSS VL: DIQMTQSPSSLSASVGDRVTITCRASQSIDNNNLNWYQQKPGKAPKLLIYAASSLQSGVPSRFSGSGSGTDFTLTISSLQPEDFATYYCQQGYDWPLTFGQGTKVEIK = 0.101
